inhibition values for the compounds below.
assaySystem: DNA topoisomerase 1 (Homo sapiens) (UniProt P11387)
Sequence (P11387 whole entry): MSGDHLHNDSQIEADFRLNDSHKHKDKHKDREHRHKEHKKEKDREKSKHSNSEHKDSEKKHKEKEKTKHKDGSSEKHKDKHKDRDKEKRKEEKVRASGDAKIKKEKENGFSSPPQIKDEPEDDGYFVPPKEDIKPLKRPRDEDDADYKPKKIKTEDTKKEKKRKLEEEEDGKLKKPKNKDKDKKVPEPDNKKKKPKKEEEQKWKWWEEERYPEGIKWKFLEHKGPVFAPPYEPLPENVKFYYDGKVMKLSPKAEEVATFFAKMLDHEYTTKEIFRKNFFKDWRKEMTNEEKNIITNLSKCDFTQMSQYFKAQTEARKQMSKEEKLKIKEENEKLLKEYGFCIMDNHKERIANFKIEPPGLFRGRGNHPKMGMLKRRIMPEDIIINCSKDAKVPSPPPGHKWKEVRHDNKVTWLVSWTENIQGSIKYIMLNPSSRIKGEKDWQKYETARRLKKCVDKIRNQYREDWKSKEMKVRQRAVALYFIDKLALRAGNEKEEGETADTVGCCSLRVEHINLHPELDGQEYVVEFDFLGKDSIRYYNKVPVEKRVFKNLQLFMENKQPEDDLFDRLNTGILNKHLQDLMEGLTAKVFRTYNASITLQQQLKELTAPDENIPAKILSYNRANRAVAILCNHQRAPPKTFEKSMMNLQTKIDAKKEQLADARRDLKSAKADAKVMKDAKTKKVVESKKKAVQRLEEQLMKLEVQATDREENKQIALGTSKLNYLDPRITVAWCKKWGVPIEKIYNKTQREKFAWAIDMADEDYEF
experimentNotes: Inhibition of recombinant human topoisomerase 1-mediated DNA relaxation expressed in Saccharomyces cerevisiae TopI null strain RS190 at 20 uM using negatively supercoiled pUC18 as substrate pretreated with enzyme for 15 mins followed by substrate addition measured after 3 mins by agarose gel electrophoresis
Please state the figure in %; there is no need to write the unit.

{"structureNotation": "Cc1ccc([C@H]2C[C@@H](c3ccccc3)Nc3c2cccc3P(c2ccccc2)c2ccccc2)cc1", "unitsSymbol": "%", "inhibition": 16}
{"structureNotation": "Cc1ccc([C@H]2C[C@@H](c3ccc(F)cc3)Nc3c2cccc3P(c2ccccc2)c2ccccc2)cc1", "unitsSymbol": "%", "inhibition": 28}
{"structureNotation": "S=P(c1ccccc1)(c1ccccc1)c1cccc2c1N[C@H](c1ccccc1)C[C@@H]2c1ccccc1", "unitsSymbol": "%", "inhibition": 0}
{"structureNotation": "c1ccc([C@H]2C[C@@H](c3ccccc3)Nc3c2cccc3P(c2ccccc2)c2ccccc2)cc1", "unitsSymbol": "%", "inhibition": 0}

Prompt line: What value of inhibition has been recorded for this entry: Fc1ccc([C@H]2C[C@@H](c3ccc(F)cc3)Nc3c2cccc3P(=S)(c2ccccc2)c2ccccc2)cc1
Response line: 17

Prompt line: What value of inhibition has been recorded for this entry: O=P(c1ccccc1)(c1ccccc1)c1cccc2c1N[C@H](c1ccccn1)C[C@@H]2c1ccccc1
Response line: 19

Prompt line: What value of inhibition has been recorded for this entry: FC(F)(F)c1ccc(-c2cc(-c3ccccc3)c3cccc(P(=S)(c4ccccc4)c4ccccc4)c3n2)cc1
Response line: 10

Prompt line: What value of inhibition has been recorded for this entry: S=P(c1ccccc1)(c1ccccc1)c1cccc2c1N[C@H](c1ccc3ccccc3c1)C[C@@H]2c1ccccc1
Response line: 16

Prompt line: What value of inhibition has been recorded for this entry: Fc1ccc([C@H]2C[C@@H](c3ccc(F)cc3)Nc3c2cccc3P(c2ccccc2)c2ccccc2)cc1
Response line: 0

Origin of values: ChEMBL document CHEMBL4196061
